remaining at 0.25 h: recorded values
Assay: Microsomal stability assay, human
Format: in vitro ADME
Details: pooled human liver microsomes (microsomal (S9) fractions), % remaining parent compound, CYP – NADPH (Phase-I), 15 min
measured-quantity: remaining at 0.25 h (%)

INSERT INTO assay_data (compound_string, measured_quantity, value_reported) VALUES
  ('Cc1ncnc2c1c(Cl)cn2[C@@H]1O[C@H](CO)[C@@H](O)[C@H]1O', 'remaining at 0.25 h', 96),
  ('CCc1cn([C@@H]2O[C@H](CO)[C@@H](O)[C@H]2O)c2ncnc(C)c12', 'remaining at 0.25 h', 89);
